- target or test system: HPK1 (Homo sapiens)
- Construct: A HiBiT tag was introduced by CRISPR on the N terminus of HPK1 in Jurkat cells; host or cells: Jurkat cells (ATCC TIB-152), monoclonal line with CRISPR knock-in of HiBiT at the endogenous HPK1 locus
- test summary: HPK1 Cellular HiBit Degradation Assay
- Format: cell-based
- assay conditions: Jurkat, HiBiT HPK1 Jurkat cells, 24 hrs; maximum degradation vs DMSO vehicle control; read-out: Dmax Category
Give measured Dmax for each item. Keep answers brief.

molecule	target or test system	Dmax
CC(C)n1cnc2cc(-c3ccc4c(c3)N([C@H]3C[C@@H](N5CCCCC5)C3)C(=O)C43CCN(C(=O)C4(C)CCN(C(=O)C5CCN(c6ccc(C7CCC(=O)NC7=O)cn6)CC5)CC4)CC3)nc(Oc3ccccc3)c21 (some centres unmarked)	HPK1 (Homo sapiens)	> 85%

Reported Dmax for Cc1nc(N2CCC(C(=O)N3CCC(C)(C(=O)N4CCC5(CC4)C(=O)N([C@H]4C[C@@H](N6CCCCC6)C4)c4cc(-c6cc7ncn(C(C)C)c7c(Nc7ccccc7F)n6)ccc45)CC3)CC2)ccc1C1CCC(=O)NC1=O (mixture of isomers) : what is it?
70 to 85%

* * *

- target or test system: HPK1 (Homo sapiens)
- Construct: A HiBiT tag was introduced by CRISPR on the N terminus of HPK1 in Jurkat cells; host or cells: Jurkat cells (ATCC TIB-152), monoclonal line with CRISPR knock-in of HiBiT at the endogenous HPK1 locus
- test summary: HPK1 Cellular HiBit Degradation Assay
- Format: cell-based
- assay conditions: Jurkat, HiBiT HPK1 Jurkat cells, 24 hrs; maximum degradation vs DMSO vehicle control; read-out: Dmax Category
property label: Dmax

compound	Dmax
Cc1cc(F)c(Nc2nc(-c3ccc4c(c3)N([C@H]3C[C@@H](N5CCCCC5)C3)C(=O)C43CCN(C(=O)c4cc(C(=O)N5CCN(c6ccc7c(c6)C(=O)N(C6CCC(=O)NC6=O)C7=O)CC5)n(C)n4)CC3)cc3ncn(C(C)C)c23)cc1C(=O)NC(C)C (mixture of isomers)	50 to 70%
CC(C)n1cnc2cc(-c3ccc4c(c3)N([C@H]3C[C@@H](N5CCCCC5)C3)C(=O)C43CCN(C(=O)C4CCN(C(=O)C5CCN(c6ccc(C7CCC(=O)NC7=O)cn6)CC5)CC4)CC3)nc(NC3CC3)c21 (stereo partly shown)	70 to 85%
CC(C)n1cnc2cc(-c3ccc4c(c3)N([C@H]3C[C@@H](N5CCCCC5)C3)C(=O)C43CCN(C(=O)C4(C)CCN(C(=O)C5C6CCC5CN(c5ccc(N7CCC(=O)NC7=O)cn5)C6)CC4)CC3)nc(NC3CC3)c21 (stereo partly shown)	70 to 85%

Could you share which Dmax value was measured for CC(C)n1cnc2cc(-c3ccc4c(c3)N([C@H]3C[C@@H](N5CCCCC5)C3)C(=O)C43CCN(C(=O)C4CCCN(C(=O)C5CCN(c6ccc(C7CCC(=O)NC7=O)cn6)CC5)C4)CC3)nc(NC3CC3)c21 (mixture of isomers) ?
70 to 85%

* * *

Can you tell me DC50 for the items I'm about to list?
- target or test system: HPK1 (Homo sapiens)
- Construct: A HiBiT tag was introduced by CRISPR on the N terminus of HPK1 in Jurkat cells; host or cells: Jurkat cells (ATCC TIB-152), monoclonal line with CRISPR knock-in of HiBiT at the endogenous HPK1 locus
- test summary: HPK1 Cellular HiBit Degradation Assay
- Type: cell-based
- assay conditions: HiBiT HPK1 Jurkat cells, 24 hrs; concentration at which 50% of HPK1 was remaining; read-out: DC50 Category

// below: answered compounds
compound	DC50
CC(C)n1cnc2cc(-c3ccc4c(c3)N([C@H]3C[C@@H](N5CCCCC5)C3)C(=O)C43CCN(C(=O)C4CCN(C(=O)[C@H]5CC[C@H](Nc6cccc7c6C(=O)N(C6CCC(=O)NC6=O)C7=O)CC5)CC4)CC3)nc(Nc3ccccc3F)c21 (mixture of isomers) [Example 57]	100 to 500 nM
CC1C(C(=O)N2CCC3(CC2)C(=O)N([C@H]2C[C@@H](N4CCCCC4)C2)c2cc(-c4cc5ncn(C(C)C)c5c(NC5CC5)n4)ccc23)CCCN1C(=O)C1CCN(c2ccc(C3CCC(=O)NC3=O)cc2)CC1 (mixture of isomers) [Example 254]	100 to 500 nM
CC(C)n1cnc2cc(-c3ccc4c(c3)N(C3CC(N5CCCCC5)C3)C(=O)C43CCN(C(=O)CC4(C)CCN(C(=O)C5CCN(c6ccc(C7CCC(=O)NC7=O)cn6)CC5)CC4)CC3)nc(NC3CC3)c21 (racemic) [Example 149]	< 100 nM
CC(C)n1cnc2cc(-c3ccc4c(c3)N([C@H]3C[C@@H](N5CCCCC5)C3)C(=O)C43CCN(C(=O)C4CCN(C(=O)C5CCN(c6ccc(C7CCC(=O)NC7=O)c(F)c6)CC5)CC4)CC3)nc(NC3CC3)c21 (mixture of isomers) [Example 237]	< 100 nM

// each compound listed below needs its DC50
1. CC(C)n1cnc2cc(-c3ccc4c(c3)N([C@H]3C[C@@H](N5CCCCC5)C3)C(=O)C43CCN(C(=O)[C@@H]4CCN(C(=O)C5CCN(c6ccc(C7CCC(=O)NC7=O)cc6)CC5)C4)CC3)nc(NC3CC3)c21 (mixture of isomers) [Example 232]
2. CC(C)n1cnc2cc(-c3ccc4c(c3)N([C@H]3C[C@@H](N5CCCCC5)C3)C(=O)C43CCN(C(=O)C4CCC5(CCC5)N(C(=O)C5CCN(c6ccc(C7CCC(=O)NC7=O)cn6)CC5)C4)CC3)nc(NC3CC3)c21 (mixture of isomers) [Example 290]
3. CC(C)n1cnc2cc(-c3ccc4c(c3)N([C@H]3C[C@@H](N5CCCCC5)C3)C(=O)C43CCN(C(=O)[C@H]4CC[C@H](C(=O)N5CCC(N(C)c6ccc(C7CCC(=O)NC7=O)cn6)CC5)CC4)CC3)nc(NC3CC3)c21 (mixture of isomers) [Example 137]
4. CC(C)n1cnc2cc(-c3ccc4c(c3)N([C@H]3C[C@@H](N5CCCCC5)C3)C(=O)C43CCN(C(=O)C4CCN(C(=O)CC5CCN(c6ccc(C7CCC(=O)NC7=O)cn6)CC5)CC4)CC3)nc(Oc3ccccc3F)c21 (some centres unmarked) [Example 167]

["< 100 nM", "100 to 500 nM", "< 100 nM", "< 100 nM"]

* * *

For each entry below, report its DC50 value.
- target or test system: HPK1 (Homo sapiens)
- Construct: A HiBiT tag was introduced by CRISPR on the N terminus of HPK1 in Jurkat cells; host or cells: Jurkat cells (ATCC TIB-152), monoclonal line with CRISPR knock-in of HiBiT at the endogenous HPK1 locus
- test summary: HPK1 Cellular HiBit Degradation Assay
- Assay type: cell-based
- assay conditions: HiBiT HPK1 Jurkat cells, 24 hrs; concentration at which 50% of HPK1 was remaining; read-out: DC50 Category

Worked cases, answers included:
compound	DC50
CC(C)n1cnc2cc(-c3ccc4c(c3)N([C@H]3C[C@@H](N5CCCCC5)C3)C(=O)C43CCN(C(=O)C4CCN(C(=O)C5CCN(c6ccc(N7CCC(=O)NC7=O)cc6)CC5)CC4)CC3)nc(Nc3ccccc3F)c21	< 100 nM
CC(C)n1cnc2cc(-c3ccc4c(c3)N([C@H]3C[C@@H](N5CCCCC5)C3)C(=O)C43CCN(C(=O)C4CCN(C(=O)[C@H]5CC[C@H](Nc6ccc(C7CCC(=O)NC7=O)cc6)CC5)CC4)CC3)nc(NC3CC3)c21 (mixture of isomers)	100 to 500 nM
CC(C)n1cnc2cc(-c3ccc4c(c3)N([C@H]3C[C@@H](N5CCCCC5)C3)C(=O)C43CCN(C(=O)[C@H]4CCN(C(=O)C5CCN(c6ccc(C7CCC(=O)NC7=O)cn6)CC5)C4)CC3)nc(Nc3ccccc3F)c21 (mixture of isomers)	< 100 nM

Consider the additional compound presented here.
Query: DC50; subject: CC(C)n1cnc2cc(-c3ccc4c(c3)N([C@H]3C[C@@H](N5CCCCC5)C3)C(=O)C43CCN(C(=O)[C@@H]4CCN(C(=O)[C@H]5CC[C@H](Nc6cccc7c6n(C)c(=O)n7C6CCC(=O)NC6=O)CC5)C4)CC3)nc(Nc3ccccc3F)c21 (mixture of isomers)
< 100 nM

* * *

- target or test system: HPK1 (Homo sapiens, UniProt Q92918)
- Construct: A HiBiT tag was introduced by CRISPR on the N terminus of HPK1 in Jurkat cells; host or cells: Jurkat cells (ATCC TIB-152), monoclonal line with CRISPR knock-in of HiBiT at the endogenous HPK1 locus
- Sequence (Q92918 whole entry): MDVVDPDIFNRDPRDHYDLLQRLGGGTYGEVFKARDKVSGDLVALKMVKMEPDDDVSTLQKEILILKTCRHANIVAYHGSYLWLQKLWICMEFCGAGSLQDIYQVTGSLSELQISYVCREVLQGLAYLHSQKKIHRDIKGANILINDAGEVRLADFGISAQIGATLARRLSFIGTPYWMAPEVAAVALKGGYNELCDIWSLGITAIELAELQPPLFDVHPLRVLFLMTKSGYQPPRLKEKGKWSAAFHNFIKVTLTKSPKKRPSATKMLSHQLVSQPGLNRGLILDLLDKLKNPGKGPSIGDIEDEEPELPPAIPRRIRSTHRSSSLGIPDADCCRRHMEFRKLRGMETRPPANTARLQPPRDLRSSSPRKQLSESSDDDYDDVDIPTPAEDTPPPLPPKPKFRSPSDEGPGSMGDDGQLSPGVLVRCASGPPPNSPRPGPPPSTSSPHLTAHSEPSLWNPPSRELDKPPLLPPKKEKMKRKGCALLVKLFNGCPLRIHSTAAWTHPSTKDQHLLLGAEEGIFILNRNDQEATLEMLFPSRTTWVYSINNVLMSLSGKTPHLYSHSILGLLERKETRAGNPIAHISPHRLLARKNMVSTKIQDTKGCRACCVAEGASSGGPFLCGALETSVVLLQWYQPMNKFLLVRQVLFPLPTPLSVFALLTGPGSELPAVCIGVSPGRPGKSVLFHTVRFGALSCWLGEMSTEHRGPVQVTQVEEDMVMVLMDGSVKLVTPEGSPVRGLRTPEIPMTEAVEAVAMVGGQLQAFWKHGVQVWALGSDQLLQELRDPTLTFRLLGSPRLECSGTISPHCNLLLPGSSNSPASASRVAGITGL
- test summary: HPK1 Cellular HiBit Degradation Assay
- Type: cell-based
- assay conditions: Jurkat, HiBiT HPK1 Jurkat cells, 24 hrs; maximum degradation vs DMSO vehicle control; read-out: Dmax Category
property label: Dmax

Known Dmax results, listed for orientation:
molecule	Dmax
CC(C)n1cnc2cc(-c3ccc4c(c3)N([C@H]3C[C@@H](N5CCCCC5)C3)C(=O)C43CCN(C(=O)C4C5CCC4CN(C(=O)C4CCN(c6ccc(C7CCC(=O)NC7=O)cn6)CC4)C5)CC3)nc(NC3CC3)c21 (mixture of isomers)	70 to 85%
CC(C)n1cnc2cc(-c3ccc4c(c3)N([C@H]3C[C@@H](N5CCCCC5)C3)C(=O)C43CCN(C(=O)[C@H]4CCN(C(=O)C5CCN(c6ccc(C7CCC(=O)NC7=O)cn6)CC5)C[C@H]4C)CC3)nc(NC3CC3)c21 (mixture of isomers)	70 to 85%
CC(C)n1cnc2cc(-c3ccc4c(c3)N([C@H]3C[C@@H](N5CCCCC5)C3)C(=O)C43CCN(C(=O)c4ccc(C(=O)N5CCN(c6ccc7c(c6)C(=O)N(C6CCC(=O)NC6=O)C7=O)CC5)cc4)CC3)nc(Nc3ccncc3F)c21 (mixture of isomers)	50 to 70%
CC(C)n1cnc2cc(-c3ccc4c(c3)N([C@H]3C[C@@H](N5CCCCC5)C3)C(=O)C43CCN(C(=O)C4CCN(C(=O)C5CCN(c6ccc(C7CCC(=O)NC7=O)cn6)CC5)CC4)CC3)nc(Nc3ccccc3F)c21 (mixture of isomers)	> 85%
CC(C)n1cnc2cc(-c3ccc4c(c3)N([C@H]3C[C@@H](N5CCCCC5)C3)C(=O)C43CCN(C(=O)C4CCN(S(=O)(=O)C5CCN(c6ccc(C7CCC(=O)NC7=O)cn6)CC5)CC4)CC3)nc(NC3CC3)c21 (mixture of isomers)	> 85%
CC(C)n1cnc2cc(-c3ccc4c(c3)N([C@H]3C[C@@H](N5CCCCC5)C3)C(=O)C43CCN(C(=O)C4CCN(C(=O)C5CCN(c6ccc(C(=O)NC7CCC(=O)NC7=O)nc6)CC5)CC4)CC3)nc(Nc3ccccc3F)c21 (mixture of isomers)	50 to 70%

Provide Dmax for all items below, preserving their order.
1. CC(C)n1cnc2cc(-c3ccc4c(c3)N([C@H]3C[C@@H](N5CCCCC5)C3)C(=O)C43CCN(C(=O)C4(C)CCN(C(=O)C5CCN(c6ccc(N7CCC(=O)NC7=O)cn6)CC5)CC4)CC3)nc(Nc3ccccc3F)c21
2. CC(C)n1cnc2cc(-c3ccc4c(c3)N([C@H]3C[C@@H](N5CC6CCC(C5)O6)C3)C(=O)C43CCN(C(=O)C4(C)CCN(C(=O)CC5CCN(c6ccc(C7CCC(=O)NC7=O)cn6)CC5)CC4)CC3)nc(NC3CC3)c21 (mixture of isomers)

1. > 85%
2. 50 to 70%

I have 8 molecules here; please give me Dmax for each one.
1. CC(C)n1cnc2cc(-c3ccc4c(c3)N([C@H]3C[C@@H](N5CCCCC5)C3)C(=O)C43CCN(C(=O)[C@H]4CC[C@@H](C(=O)N5CCC(N(C)c6ccc(C7CCC(=O)NC7=O)cc6)CC5)CC4)CC3)nc(NC3CC3)c21 (mixture of isomers)
2. CC(C)n1cnc2cc(-c3ccc4c(c3)N([C@H]3C[C@@H](N5CCCCC5)C3)C(=O)C43CCN(C(=O)[C@@H]4CCN(C(=O)[C@H]5CC[C@H](Oc6ccc(C7CCC(=O)NC7=O)cc6)CC5)C4)CC3)nc(Nc3ccccc3F)c21 (stereo partly shown)
3. Cc1cc(C(=O)N2CCN(c3ccc4c(c3)C(=O)N(C3CCC(=O)NC3=O)C4=O)CC2)ccc1C(=O)N1CCC2(CC1)C(=O)N([C@H]1C[C@@H](N3CCCCC3)C1)c1cc(-c3cc4ncn(C(C)C)c4c(Nc4ccccc4F)n3)ccc12 (mixture of isomers)
4. CC(C)n1cnc2cc(-c3ccc4c(c3)N([C@H]3C[C@@H](N5CCCCC5)C3)C(=O)C43CCN(C(=O)[C@@H]4CCN(C(=O)[C@H]5CC[C@H](Nc6ccc(C7CCC(=O)NC7=O)cn6)CC5)C4)CC3)nc(Nc3ccccc3F)c21 (mixture of isomers)
5. CC(C)n1cnc2cc(-c3ccc4c(c3)N([C@H]3C[C@@H](N5CCCCC5)C3)C(=O)C43CCN(C(=O)[C@H]4CC[C@@H](C(=O)N5CCC(Nc6ccc(C7CCC(=O)NC7=O)cn6)CC5)CC4)CC3)nc(Nc3ccccc3F)c21 (mixture of isomers)
6. CC(C)n1cnc2cc(-c3ccc4c(c3)N([C@H]3C[C@@H](N5CC6CCC(C6)C5)C3)C(=O)C43CCN(C(=O)C4(C)CCN(C(=O)CC5CCN(c6ccc(C7CCC(=O)NC7=O)cn6)CC5)CC4)CC3)nc(NC3CC3)c21 (mixture of isomers)
7. CCC1(C(=O)N2CCC3(CC2)C(=O)N([C@H]2C[C@@H](N4CCCCC4)C2)c2cc(-c4cc5ncn(C(C)C)c5c(NC5CC5)n4)ccc23)CCN(C(=O)C2CCN(c3ccc(C4CCC(=O)NC4=O)cn3)CC2)CC1 (mixture of isomers)
8. CC(C)n1cnc2cc(-c3ccc4c(c3)N([C@H]3C[C@@H](N5CCCCC5)C3)C(=O)C43CCN(C(=O)[C@@H]4CCN(C(=O)C5CCN(c6ccc(C7CCC(=O)NC7=O)cn6)CC5)[C@@H]4C)CC3)nc(Nc3ccccc3F)c21 (mixture of isomers)

1: 50 to 70%; 2: > 85%; 3: 70 to 85%; 4: 70 to 85%; 5: 70 to 85%; 6: 70 to 85%; 7: > 85%; 8: 50 to 70%
